I'd be grateful if you could share measured Activity for these entries.
System: L1210
Assay: Percentage of L1210 cells killed was determined in L1210 Inoculated mice at a dose of 22 mg/kg after a single treatment
Assay type: functional, Mus musculus
Answers are plain numbers, in %.

Guide cases for Activity, answers given:
[[record]]
molecule = "Nc1nc(S(N)(=O)=O)c2[nH]cnc2n1"
value_units = "%"
assay_value = 20.78

[[record]]
molecule = "NSc1nc(N)nc2c1ncn2C1O[C@H](CO)[C@@H](O)[C@H]1O (some centres undefined)"
value_units = "%"
assay_value = 99.84

[[record]]
molecule = "CC(=O)OC[C@H]1O[C@@H](n2cnc3c([S+](N)[O-])nc(N)nc32)[C@H](OC(C)=O)[C@@H]1OC(C)=O (some centres undefined)"
value_units = "%"
assay_value = 0


Continue with the molecule presented below.
Ask: GET /values?readout=Activity&item= Nc1nc([S+](N)[O-])c2[nH]cnc2n1 (centres undefined)
Result: 67.94
